Assay: JC-1 mitochondrial potential readout, lung cancer cells – cell-based, A549, JC-1 fluorescence, basal, 24 h, 100 nL, profiling panel (AID 1138);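 note: A549 lung adenocarcinoma cells under basal conditions with no added stimulus; test concentration not given here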
Settings: higher = more signal
Known z-score of a selection of compounds

These recorded examples may help you get a feel for the data.
>  <compound>
CC(C)CCC[C@@H](C)[C@H]1CC[C@@]2(C)C3=C(CC[C@]12C)[C@@]1(C)CC[C@H](OC(=O)c2ccc(C(F)(F)F)nc2)C(C)(C)C1CC3 (stereo partly specified)

>  <result>
0.425

$$$$
>  <compound>
COCCOC(=O)N1C(=O)[C@@]2(c3ccccc31)[C@H](c1ccc(OCCO)cc1)N1[C@H](c3ccccc3)[C@H](c3ccccc3)OC(=O)[C@H]1[C@@H]2C(=O)N1CCc2cc(OC)c(OC)cc2C1

>  <result>
-0.0272

$$$$
>  <compound>
COCCOC(=O)N1C(=O)[C@@]2(c3ccccc31)[C@H](C(=O)N1CCc3cc(OC)c(OC)cc3C1)[C@H]1C(=O)O[C@H](c3ccccc3)[C@H](c3ccccc3)N1[C@@H]2c1ccc(O)cc1

>  <result>
0.674

$$$$

Lookup result for CCCCN1CC=CC23O[C@@H]4C=CCCOC(=O)C4[C@H]2C(=O)N(CCCCCO)[C@@H]3C1=O (stereo partly specified) ; measured z-score: 0.976

z-score reading for CC(C)CN1C(=O)[C@@]2(c3ccc([N+](=O)[O-])cc3)CC(=O)N(C3CCCCC3)[C@@H]2c2ccc(CO)cc21 : 0.766

Lookup result for COc1ccc([Si](C)(C)[C@@H]2[C@@H](CC(=O)N3Cc4ccccc4C[C@H]3CO)O[C@]3(C(=O)N(Cc4cccc(N5CCC5=O)c4)c4ccccc43)[C@H]2C)cc1 ; measured z-score: -0.256
